Assay overview: in vivo
Assay type: in vivo
Measurement setup: rat, in vivo, therapeutic breadth, worked out with the cited LD50 of w (female) rats; read-out: Q LD50/ED50
Metric name: selectivity ratio
Format: numeric value only, no unit, no commentary.

Looking for the measured selectivity ratio of CC(C)N(CCC(C(N)=O)(c1ccccc1)c1ccccn1)C(C)C (racemic) [Disopyramid] , can you help? 50

---

Assay overview: in vivo
Type: in vivo
Measurement setup: rat, in vivo, therapeutic breadth, rat LD50 / rat CaCl2-arrhythmia ED50; read-out: Q LD50/ED50
Metric name: selectivity ratio
Answer as a number with no unit attached.

Please look up its selectivity ratio: C=CC1CN2CCC1CC2C(O)c1ccnc2ccc(OC)cc12 (stereo not shown) 18
